System: rRNA
Test: Fluorescence of dye with rRNA
Format: binding
Conditions: fluorescence rRNA vs 40-mer ds-DNA
ENDPOINT: Ratio rRNA/ds
Please reply with the value in numeric form only.

Inquiry: Tell me the measured Ratio rRNA/ds of CN1C(=Cc2cc[n+](C)c3ccccc23)Sc2ccccc21 [TO, Thiazole Orange, reference compound] , please.
Reply text: 0.8

Inquiry: Could you do the same for CCCN(CCCN(C)C)C1=C/C(=C\c2sc3ccccc3[n+]2C)c2ccccc2N1c1ccccc1 [SYBR Green, reference compound] , please?
Reply text: 0.3

Inquiry: Could you do the same for CCN(CC)c1ccc2c(/C=C3\Sc4ccccc4N3C)cc(N3CCN(CCO)CC3)[o+]c2c1 [Dye V13-01184] , please?
Reply text: 1.0

Inquiry: Could you do the same for CCN(CC)c1ccc2c(/C=C3\Sc4ccccc4N3C)cc(N(C)CCC[N+](C)(C)C)[o+]c2c1 [Dye V11-02190] , please?
Reply text: 0.7

Inquiry: Could you do the same for CCN1c2cc3[o+]c(N(C)CCCN(C)C)cc(/C=C4\Sc5ccccc5N4C)c3cc2C(C)=CC1(C)C [Dye V12-02144] , please?
Reply text: 0.7

Inquiry: Could you do the same for CCN(CC)c1ccc2c(N(C)CCCN(C)C)cc(/C=C3\Sc4ccccc4N3C)[o+]c2c1 [Dye V02-07108] , please?
Reply text: 0.8

Inquiry: Could you do the same for CCN(CC)c1ccc2c(/C=C3\Sc4ccccc4N3C)cc(N3CC[N+](C)(CCO)CC3)[o+]c2c1 [Dye V11-03001] , please?
Reply text: 0.6
